// compounds with Ki on Melanocortin receptor 4 (Homo sapiens), multi-source literature
Sequence (P32245 whole entry): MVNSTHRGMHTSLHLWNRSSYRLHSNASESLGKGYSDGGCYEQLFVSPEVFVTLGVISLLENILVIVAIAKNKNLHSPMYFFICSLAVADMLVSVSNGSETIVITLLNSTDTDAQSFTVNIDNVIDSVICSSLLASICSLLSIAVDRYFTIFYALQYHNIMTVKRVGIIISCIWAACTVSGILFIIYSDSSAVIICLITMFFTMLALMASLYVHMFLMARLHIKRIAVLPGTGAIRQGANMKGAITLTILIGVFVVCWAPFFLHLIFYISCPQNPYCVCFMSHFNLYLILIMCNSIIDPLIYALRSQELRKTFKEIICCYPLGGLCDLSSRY
Answers are plain numbers, in nM.

>  <Compound>
CCC(=O)N1C[C@H](C(=O)N2CCN(C3(CNCc4ccncc4)CCCCC3)CC2)[C@@H](c2ccc(Cl)cc2)C1

>  <Measurement kind>
Ki

>  <Observed>
3100

$$$$
>  <Compound>
CCCC[C@H](NC(=O)[C@@H](NC(=O)[C@@H](N)Cc1ccc(O)cc1)C(C)C)C(=O)NCC(=O)NC(C)(C)C(=O)N[C@@H](Cc1ccccc1)C(=O)N[C@@H](CCCN=C(N)N)C(=O)N[C@H](Cc1ccc2ccccc2c1)C(=O)N[C@@H](CC(=O)O)C(=O)N[C@@H](CCCN=C(N)N)C(=O)N[C@@H](Cc1ccccc1)C(=O)NCC(N)=O

>  <Measurement kind>
Ki

>  <Observed>
4800

$$$$

Dear colleague, could you please provide Ki for the compounds listed below?
1. CC(C)C[C@H](N)c1cc(C(F)(F)F)ccc1N1CCN(C(=O)C(C)Cc2ccc(Cl)c(Cl)c2)CC1 (stereo in doubt; 8q)
2. CC(C)[C@H](N)c1cccc(F)c1N1CCN(C(=O)[C@@H]2CN(C(=O)C3CC3)C[C@H]2c2ccc(Cl)cc2)CC1
3. CC(C)N1C[C@H](C(=O)N2CCN(C3(CNCc4ccccc4OC(F)(F)F)CCCCC3)CC2)[C@@H](c2ccc(Cl)cc2)C1
4. CC(C)C[C@H](N)c1cc(C(F)(F)F)ccc1N1CCN(C(=O)[C@@H]2CN(Cc3ccccc3)C[C@H]2c2ccc(Cl)cc2)CC1

[1600, 31, 110, 120]

====

// compounds with pKi on UniProtKB P32245, multi-source literature
Give bare numbers, as −log10 of the molar value.

These solved cases illustrate the format of a correct answer.
>  <Compound>
NCCC(=O)N[C@H](Cc1ccc(Cl)cc1Cl)C(=O)N1CCN(c2ncccc2CNC(=O)c2cccs2)CC1

>  <Observed>
5.74

$$$$
>  <Compound>
CC(C)C[C@H](N)c1cc(C(F)(F)F)ccc1N1CCN(C(=O)[C@@H]2CN(CCN)C[C@H]2c2ccc(Cl)cc2)CC1

>  <Observed>
6.74

$$$$
>  <Compound>
CC(C)C[C@H](NC(=O)CCN)c1cc(C(F)(F)F)ccc1N1CCN(C(=O)[C@@H]2CN(C(C)C)C[C@H]2c2ccc(Cl)cc2)CC1

>  <Observed>
8.06

$$$$

Dear colleague, could you please provide pKi for the compounds listed below?
1. CCN(CC)CC(c1ccccc1F)N1CCN(C(=O)[C@@H](Cc2ccc(Cl)cc2)NC(=O)[C@H]2Cc3ccccc3CN2)CC1 (stereo partly drawn)
2. CCN(CC)C[C@@H](c1ccccc1)N1CCN(C)CC1
3. CC(NC1CCCNC1)c1ccccc1N1CCN(C(=O)[C@@H](Cc2ccc(Cl)cc2)NC(=O)C2(N)CCc3ccccc3C2)CC1 (stereo partly drawn)
4. CC(C)C[C@H](N)c1cc(C(F)(F)F)ccc1N1CCN(C(=O)COc2cccc(Cl)c2Cl)CC1

[7.39, 7.30, 8.00, 5.60]

Bench note, UniProtKB P32245: entry CC(NC1CCCNC1)c1ccccc1N1CCN(C(=O)[C@@H](Cc2ccc(Cl)cc2)NC(=O)[C@H]2Cc3ccccc3CN2)CC1 (stereo partly drawn) , its pKi = 8.19

====

// molecules with pKi on Melanocortin receptor 4 (Homo sapiens), multi-source literature
Numbers only, as −log10 of the molar value.

These solved cases illustrate the format of a correct answer.
>  <Molecule>
CC(C)[C@H](NC(=O)CCN(C)C)c1cccc(F)c1N1CCN(C(=O)[C@@H]2CN(C(C)C)C[C@H]2c2cc(F)ccc2F)CC1

>  <Target under test>
Melanocortin receptor 4 (Homo sapiens)

>  <pKi>
5.69

$$$$
>  <Molecule>
O=C(N[C@H](Cc1ccc(Cl)cc1)C(=O)N1CCN([C@H]2CCCC[C@@H]2n2cncn2)CC1)C1Cc2ccccc2CN1 (stereo partly drawn)

>  <Target under test>
Melanocortin receptor 4 (Homo sapiens)

>  <pKi>
6.07

$$$$

Now for another entry.
Per the record, N=C(N)NCCC[C@@H]1NC(=O)[C@@H](Cc2ccc3ccccc3c2)NC(=O)[C@H](Cc2c[nH]cn2)NC(=O)CCC(=O)NCCCC[C@@H](C(N)=O)NC(=O)[C@H](Cc2c[nH]c3ccccc23)NC1=O has pKi of 7.06
